target_of_assay: hWNK3 (Homo sapiens)
Sequence (Q9BYP7 whole entry): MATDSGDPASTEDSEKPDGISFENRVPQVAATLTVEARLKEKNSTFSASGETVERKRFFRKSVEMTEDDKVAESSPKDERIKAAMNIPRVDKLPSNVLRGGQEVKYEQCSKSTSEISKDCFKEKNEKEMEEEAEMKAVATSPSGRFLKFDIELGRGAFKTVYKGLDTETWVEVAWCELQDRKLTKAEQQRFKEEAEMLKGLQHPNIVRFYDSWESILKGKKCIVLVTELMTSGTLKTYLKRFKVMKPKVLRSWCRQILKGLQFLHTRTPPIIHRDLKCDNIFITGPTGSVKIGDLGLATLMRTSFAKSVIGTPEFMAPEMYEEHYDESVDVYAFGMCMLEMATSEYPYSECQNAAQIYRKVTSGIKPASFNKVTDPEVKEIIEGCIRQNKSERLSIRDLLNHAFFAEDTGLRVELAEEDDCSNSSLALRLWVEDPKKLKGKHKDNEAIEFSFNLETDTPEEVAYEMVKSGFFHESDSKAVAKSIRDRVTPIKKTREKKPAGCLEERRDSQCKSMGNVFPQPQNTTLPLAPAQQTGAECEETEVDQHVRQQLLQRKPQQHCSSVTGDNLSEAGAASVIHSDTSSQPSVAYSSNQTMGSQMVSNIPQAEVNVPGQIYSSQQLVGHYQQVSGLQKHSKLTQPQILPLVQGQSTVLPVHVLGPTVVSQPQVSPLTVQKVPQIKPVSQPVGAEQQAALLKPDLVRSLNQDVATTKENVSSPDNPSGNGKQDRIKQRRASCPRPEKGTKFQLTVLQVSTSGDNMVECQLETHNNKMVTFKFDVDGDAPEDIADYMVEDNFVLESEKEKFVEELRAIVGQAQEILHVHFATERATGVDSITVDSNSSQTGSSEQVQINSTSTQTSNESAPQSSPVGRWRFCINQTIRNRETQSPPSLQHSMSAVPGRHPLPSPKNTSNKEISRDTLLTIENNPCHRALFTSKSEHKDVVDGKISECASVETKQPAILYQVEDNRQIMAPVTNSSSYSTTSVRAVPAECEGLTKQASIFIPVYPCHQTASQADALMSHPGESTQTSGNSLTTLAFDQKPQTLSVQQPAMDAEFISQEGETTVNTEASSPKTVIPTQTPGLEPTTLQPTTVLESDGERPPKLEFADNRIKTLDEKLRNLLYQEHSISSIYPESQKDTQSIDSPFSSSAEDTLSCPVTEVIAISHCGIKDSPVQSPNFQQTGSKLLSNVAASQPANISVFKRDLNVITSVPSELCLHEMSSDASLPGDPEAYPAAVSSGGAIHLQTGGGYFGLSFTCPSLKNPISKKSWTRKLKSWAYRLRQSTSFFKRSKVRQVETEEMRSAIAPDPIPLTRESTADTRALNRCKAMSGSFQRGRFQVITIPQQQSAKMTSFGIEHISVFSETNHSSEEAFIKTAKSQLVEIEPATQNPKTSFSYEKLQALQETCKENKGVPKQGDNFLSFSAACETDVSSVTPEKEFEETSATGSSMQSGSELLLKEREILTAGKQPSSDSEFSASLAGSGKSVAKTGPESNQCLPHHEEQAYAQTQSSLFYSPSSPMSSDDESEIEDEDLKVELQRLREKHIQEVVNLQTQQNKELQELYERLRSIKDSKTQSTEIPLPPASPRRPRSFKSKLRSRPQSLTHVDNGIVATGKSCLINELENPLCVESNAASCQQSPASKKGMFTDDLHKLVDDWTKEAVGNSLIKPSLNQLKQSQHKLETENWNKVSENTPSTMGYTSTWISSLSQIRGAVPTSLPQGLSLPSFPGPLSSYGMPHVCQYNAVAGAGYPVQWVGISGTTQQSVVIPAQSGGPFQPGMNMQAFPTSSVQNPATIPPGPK

compound	target_of_assay	units_label	Kd
C=CC1=C(C)/C(=C/c2[nH]c(Cc3[nH]c(/C=C4\NC(=O)C(C)=C4C=C)c(C)c3CCC(=O)O)c(CCC(=O)O)c2C)NC1=O [bilirubin, Bilirubin]	hWNK3 (Homo sapiens)	nM	760

* * *

target_of_assay: full-length hWNK1 (Homo sapiens)
Construct: We overexpressed full‐length WNK1 fused with Green Fluorescent Protein (GFP); expressed in transfected cells; host or cells: HEK293T
Sequence (Q9H4A3 whole entry, the tested form may be a part): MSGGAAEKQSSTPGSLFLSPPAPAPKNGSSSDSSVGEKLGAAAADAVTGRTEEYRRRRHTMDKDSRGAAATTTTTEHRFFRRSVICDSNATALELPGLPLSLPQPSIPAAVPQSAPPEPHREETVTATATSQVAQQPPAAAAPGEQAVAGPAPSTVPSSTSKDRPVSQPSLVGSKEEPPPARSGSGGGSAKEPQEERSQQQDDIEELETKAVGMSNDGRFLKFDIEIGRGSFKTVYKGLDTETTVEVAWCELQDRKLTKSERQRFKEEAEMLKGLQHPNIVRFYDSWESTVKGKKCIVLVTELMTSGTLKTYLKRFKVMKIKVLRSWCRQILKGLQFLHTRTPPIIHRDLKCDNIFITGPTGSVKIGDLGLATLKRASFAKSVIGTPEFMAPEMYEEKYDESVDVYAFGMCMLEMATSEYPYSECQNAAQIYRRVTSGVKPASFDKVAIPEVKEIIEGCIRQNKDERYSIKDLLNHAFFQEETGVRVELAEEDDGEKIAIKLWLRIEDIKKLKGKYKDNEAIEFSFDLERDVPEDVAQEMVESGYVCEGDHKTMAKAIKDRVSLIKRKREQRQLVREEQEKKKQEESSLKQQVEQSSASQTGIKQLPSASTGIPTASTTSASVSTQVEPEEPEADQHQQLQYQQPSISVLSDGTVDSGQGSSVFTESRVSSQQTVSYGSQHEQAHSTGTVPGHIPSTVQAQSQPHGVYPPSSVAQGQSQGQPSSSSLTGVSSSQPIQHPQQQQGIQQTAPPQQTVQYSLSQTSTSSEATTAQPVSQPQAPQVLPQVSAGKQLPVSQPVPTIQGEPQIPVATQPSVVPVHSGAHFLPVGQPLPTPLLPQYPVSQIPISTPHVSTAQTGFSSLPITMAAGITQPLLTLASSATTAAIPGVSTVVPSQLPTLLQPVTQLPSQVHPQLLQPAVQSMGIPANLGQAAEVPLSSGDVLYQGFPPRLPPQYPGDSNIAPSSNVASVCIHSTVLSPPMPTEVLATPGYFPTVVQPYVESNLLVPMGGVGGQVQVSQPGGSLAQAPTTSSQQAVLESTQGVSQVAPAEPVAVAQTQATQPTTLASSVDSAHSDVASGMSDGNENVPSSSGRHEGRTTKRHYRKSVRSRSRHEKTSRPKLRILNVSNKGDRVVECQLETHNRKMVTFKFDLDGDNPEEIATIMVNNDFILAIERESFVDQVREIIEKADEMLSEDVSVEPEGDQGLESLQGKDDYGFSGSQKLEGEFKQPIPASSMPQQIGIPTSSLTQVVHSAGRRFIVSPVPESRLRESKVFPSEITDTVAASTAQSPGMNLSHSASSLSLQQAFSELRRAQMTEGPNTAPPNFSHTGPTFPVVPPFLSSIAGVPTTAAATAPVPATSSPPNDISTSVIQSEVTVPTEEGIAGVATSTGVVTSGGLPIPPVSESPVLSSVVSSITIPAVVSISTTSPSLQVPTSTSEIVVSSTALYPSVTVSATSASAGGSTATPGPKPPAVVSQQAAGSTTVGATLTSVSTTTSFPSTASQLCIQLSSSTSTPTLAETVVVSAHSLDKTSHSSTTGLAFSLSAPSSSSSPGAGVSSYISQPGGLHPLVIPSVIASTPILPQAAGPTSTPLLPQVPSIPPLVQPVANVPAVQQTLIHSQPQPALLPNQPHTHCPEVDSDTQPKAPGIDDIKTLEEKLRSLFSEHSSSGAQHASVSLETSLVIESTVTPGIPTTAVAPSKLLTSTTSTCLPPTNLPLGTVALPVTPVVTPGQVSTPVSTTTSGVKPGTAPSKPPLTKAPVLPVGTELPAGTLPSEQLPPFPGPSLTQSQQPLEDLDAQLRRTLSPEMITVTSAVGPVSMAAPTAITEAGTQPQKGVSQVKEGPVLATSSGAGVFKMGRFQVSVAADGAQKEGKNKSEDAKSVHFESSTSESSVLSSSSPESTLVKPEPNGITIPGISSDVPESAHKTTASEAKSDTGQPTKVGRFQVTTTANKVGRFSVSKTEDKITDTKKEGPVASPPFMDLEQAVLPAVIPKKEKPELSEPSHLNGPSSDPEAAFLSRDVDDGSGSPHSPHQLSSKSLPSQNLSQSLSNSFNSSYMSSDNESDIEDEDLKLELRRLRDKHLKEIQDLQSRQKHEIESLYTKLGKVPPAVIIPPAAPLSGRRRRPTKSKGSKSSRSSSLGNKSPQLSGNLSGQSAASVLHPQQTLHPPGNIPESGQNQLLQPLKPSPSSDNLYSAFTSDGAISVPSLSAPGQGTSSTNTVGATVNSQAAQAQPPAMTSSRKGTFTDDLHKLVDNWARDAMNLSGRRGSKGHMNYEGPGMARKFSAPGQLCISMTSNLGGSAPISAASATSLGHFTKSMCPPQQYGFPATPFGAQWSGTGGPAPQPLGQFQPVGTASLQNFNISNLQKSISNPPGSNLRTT
protocol_details: MicroScale Thermophoresis (MST), EGFP-tagged full-length WNK1 in HEK293T cell lysates
Format: binding
test_context: 15 min incubation, lysates of EGFP-WNK1 expressing HEK293T cells, control ligand
pKd: −log10 of the molar value.

compound	pKd
C=CC1=C(C)/C(=C/C2=NC(=C\c3[nH]c(/C=C4\NC(=O)C(C)=C4C=C)c(C)c3CCC(=O)O)/C(CCC(=O)O)=C2C)NC1=O [Biliverdin, reference compound]	4.53

* * *

target_of_assay: hWNK1 (181–507) (Homo sapiens, UniProt Q9H4A3)
Construct: the amino acid fragment 181–507 of human WNK1 (hWNK1)
Sequence (Q9H4A3 181-507): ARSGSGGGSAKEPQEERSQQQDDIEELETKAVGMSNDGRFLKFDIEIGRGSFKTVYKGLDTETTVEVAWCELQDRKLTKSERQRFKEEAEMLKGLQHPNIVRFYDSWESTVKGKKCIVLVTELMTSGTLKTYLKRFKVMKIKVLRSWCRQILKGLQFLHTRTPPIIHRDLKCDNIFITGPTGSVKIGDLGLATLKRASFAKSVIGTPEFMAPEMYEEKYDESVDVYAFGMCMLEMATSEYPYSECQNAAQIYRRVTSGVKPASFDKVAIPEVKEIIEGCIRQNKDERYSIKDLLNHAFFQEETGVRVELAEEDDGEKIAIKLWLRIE
protocol_details: ADP-Glo kinase assay, purified hWNK1 kinase domain
test_context: ADP production, luminescence normalized to reactions lacking bilirubin; 12 serial dilutions from 20 µM; read-out: EC50, activation of WNK1 kinase activity

molecule	EC50 [µM]
C=CC1=C(C)/C(=C/c2[nH]c(Cc3[nH]c(/C=C4\NC(=O)C(C)=C4C=C)c(C)c3CCC(=O)O)c(CCC(=O)O)c2C)NC1=O [bilirubin, Bilirubin]	0.896

* * *

target_of_assay: WNK1 (1–491) (Homo sapiens)
Construct: different lengths of WNK1 truncations (1–491, 1–190, 191–491, 491–2382)
Sequence (Q9H4A3 1-491): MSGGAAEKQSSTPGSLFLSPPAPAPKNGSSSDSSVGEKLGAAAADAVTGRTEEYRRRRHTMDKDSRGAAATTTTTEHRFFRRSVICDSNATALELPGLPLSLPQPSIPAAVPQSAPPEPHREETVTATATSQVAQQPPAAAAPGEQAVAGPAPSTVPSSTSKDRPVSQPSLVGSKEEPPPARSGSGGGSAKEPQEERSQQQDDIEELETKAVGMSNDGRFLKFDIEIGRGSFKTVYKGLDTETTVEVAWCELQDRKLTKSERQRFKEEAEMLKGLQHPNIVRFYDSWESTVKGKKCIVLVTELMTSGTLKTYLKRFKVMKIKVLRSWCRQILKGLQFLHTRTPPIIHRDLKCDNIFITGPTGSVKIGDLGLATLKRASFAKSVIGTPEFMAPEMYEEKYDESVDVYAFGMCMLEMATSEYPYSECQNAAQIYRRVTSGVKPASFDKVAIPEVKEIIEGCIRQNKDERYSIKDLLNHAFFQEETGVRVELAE
protocol_details: MST, EGFP-tagged WNK1 truncation 1–491
test_context: WNK1 1–491, 15 min, HEK293T lysates
Excerpt: To further validate these findings, we constructed GFP‐tagged fusion proteins with different lengths of WNK1 truncations (1–491, 1–190, 191–491, 491–2382) based on the WNK1 domains (Figure 3E) and analyzed their binding capacity with bilirubin using MST analysis.^[ [29] ^] All WNK1 clones were derived from the original untagged hWNK1 cDNA (NM_018979), which was modified and subcloned into the pcDNA3.1, referred to as “full‐length WNK1” throughout this study. […]

substance_smiles	target_of_assay	units_label	Kd
C=CC1=C(C)/C(=C/c2[nH]c(Cc3[nH]c(/C=C4\NC(=O)C(C)=C4C=C)c(C)c3CCC(=O)O)c(CCC(=O)O)c2C)NC1=O	WNK1 (1–491) (Homo sapiens)	nM	315

* * *

target_of_assay: full-length hWNK1 (Homo sapiens)
Construct: We overexpressed full‐length WNK1 fused with Green Fluorescent Protein (GFP); expressed in transfected cells; host or cells: HEK293T
protocol_details: MicroScale Thermophoresis (MST), EGFP-tagged full-length WNK1 in HEK293T cell lysates
Type: binding
test_context: 15 min incubation, lysates of EGFP-WNK1 expressing HEK293T cells
pKd: −log10 of the molar value.
readout_label: pKd

substance_smiles	target_of_assay	reported_result
C=CC1=C(C)/C(=C/c2[nH]c(Cc3[nH]c(/C=C4\NC(=O)C(C)=C4C=C)c(C)c3CCC(=O)O)c(CCC(=O)O)c2C)NC1=O	full-length hWNK1 (Homo sapiens)	7.17
